// data source = ChEMBL document CHEMBL2040827

# experimental.details: Fraction unbound in rat plasma
# Assay type: ADME, cell-free
recorded.metric: fraction unbound
Output: the number by itself.

response.value for O=C(O)c1cc(CN2CCN(c3ccc(Br)cc3)CC2)c2ccccn2c1=O (field: fraction unbound) = 0.04

* * *

This section lists IC50 readings for Voltage-gated inwardly rectifying potassium channel KCNH2 (Homo sapiens, UniProt Q12809).

1) O=C(O)c1cc(CN2CCN(c3ccc(C(F)(F)F)cc3)CC2)c2ccccn2c1=O | 100 nM
2) O=C(O)c1cc(CN2CCN(c3ccc(Br)cc3)CC2)c2ccccn2c1=O | 2100 nM

Continue with the next compound.
response.value for N#Cc1ccc(N2CCN(Cc3cc(C(=O)O)c(=O)n4ccccc34)CC2)cc1 (field: IC50) = 7400 nM

* * *

# experimental.details: Fraction unbound in human plasma
# Type: ADME, cell-free
recorded.metric: fraction unbound

response.value for O=C(O)c1cc(CN2CCN(c3ccccc3)CC2)c2ccccn2c1=O (field: fraction unbound) = > 0.25

* * *

# system.tested: Muscarinic acetylcholine receptor M1 (Homo sapiens) (UniProt P11229)
# experimental.details: Positive allosteric modulation of human muscarinic M1 receptor expressed in CHO-NFAT cells assessed as potentiation of acetylcholine-induced calcium flux after 1 hr by FLIPR assay
# Assay type: functional, cell-based
recorded.metric: Activity (µM)
State the answer as a number, implicitly in µM.

Some entries whose results are on file:
1. O=C(O)c1cc(Cc2ccc(Cl)cc2)c2ccccn2c1=O | 0.2
2. O=C(O)c1cc(Cc2ccc(-c3cccnc3)cc2)c2ccccn2c1=O | 0.075
3. O=C(O)c1cc(CN2CCN(c3ccc(Br)cc3)CC2)c2ccccn2c1=O | 0.13

response.value for O=C(O)c1cc(Cc2ccc(-c3ccccc3)cc2)c2ccccn2c1=O (field: Activity) = 0.11

response.value for O=C(O)c1cc(CN2CCN(c3ccccc3)C(=O)C2)c2ccccn2c1=O (field: Activity) = 1.1

response.value for O=C(O)c1cc(CN2CCN(c3ccccc3)CC2)c2ccccn2c1=O (field: Activity) = 0.93

* * *

Quick reference for concentration among some compounds
# Test system: Brain
# experimental.details: Drug uptake in Sprague-Dawley rat brain at 10 mg/kg, po
# Format: ADME, organism-based
# Parameters: dose 10 mg/kg, route oral
# assay.setup: in vivo, read-out: Drug uptake
State the answer as a number, implicitly in nM.

Some entries whose results are on file:
1) O=C(O)c1cc(CN2CCN(c3ccncc3)CC2)c2ccccn2c1=O | 59
2) O=C(O)c1cc(CN2CCN(c3ccc(C(F)(F)F)cc3)CC2)c2ccccn2c1=O | 3080
3) O=C(O)c1cc(CN2CCN(c3ccc(Br)cc3)CC2)c2ccccn2c1=O | 4580

response.value for N#Cc1ccc(N2CCN(Cc3cc(C(=O)O)c(=O)n4ccccc34)CC2)cc1 (field: concentration) = 248

* * *

# system.tested: Muscarinic acetylcholine receptor M1 (Homo sapiens)
# Sequence (whole entry): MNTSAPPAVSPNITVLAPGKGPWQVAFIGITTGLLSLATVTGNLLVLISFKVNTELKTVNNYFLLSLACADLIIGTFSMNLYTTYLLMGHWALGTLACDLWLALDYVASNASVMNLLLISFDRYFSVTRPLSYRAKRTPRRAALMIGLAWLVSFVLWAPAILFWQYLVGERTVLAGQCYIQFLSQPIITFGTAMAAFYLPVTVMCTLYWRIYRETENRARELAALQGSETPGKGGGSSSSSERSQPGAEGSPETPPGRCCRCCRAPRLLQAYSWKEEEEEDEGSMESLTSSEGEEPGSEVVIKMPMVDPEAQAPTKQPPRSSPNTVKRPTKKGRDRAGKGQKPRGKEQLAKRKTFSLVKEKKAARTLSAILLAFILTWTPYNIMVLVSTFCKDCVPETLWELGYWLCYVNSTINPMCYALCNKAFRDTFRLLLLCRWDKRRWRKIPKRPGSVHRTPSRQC
# experimental.details: Positive allosteric modulation of human muscarinic M1 receptor expressed in CHO-NFAT cells assessed as potentiation of acetylcholine-induced calcium flux after 1 hr by FLIPR assay
# Type: functional, cell-based
Quick reference for Activity among some compounds
State the answer as a number, implicitly in µM.

Some entries whose results are on file:
1) O=C(O)c1cc(CN2CCN(c3ccc(C(F)(F)F)cc3)CC2)c2ccccn2c1=O | 0.27
2) O=C(O)c1cc(Cc2ccccc2)c2ccccn2c1=O | 0.92
3) O=C(O)c1cc(CN2CCC(c3ccccc3)CC2)c2ccccn2c1=O | 1.3

Continue with the next compound.
response.value for N#Cc1ccc(N2CCN(Cc3cc(C(=O)O)c(=O)n4ccccc34)CC2)cc1 (field: Activity) = 0.52
